# Target Entity: T1, Cyno GITR (cell surface) (cynomolgus monkey)
# T1 construct: Presented on transfected or transduced HEK293 cells; also called cynomolgus monkey GITR
# T1 chain: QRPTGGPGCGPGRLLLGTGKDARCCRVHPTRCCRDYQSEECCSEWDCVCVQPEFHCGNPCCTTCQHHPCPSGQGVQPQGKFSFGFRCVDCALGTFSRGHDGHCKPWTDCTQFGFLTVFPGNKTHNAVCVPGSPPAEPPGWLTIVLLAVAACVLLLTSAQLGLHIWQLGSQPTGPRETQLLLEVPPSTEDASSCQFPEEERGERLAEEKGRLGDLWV
# Method Summary: flow cytometry, transiently transfected HEK293F cells, 0.1 mg/mL antibody

Binder	binding result
TRGB5 (antibody, human IgG1, kappa, V domains shown, human IgG1/kappa) VH: EVQLLESGGGLVQPGGSLRLSCAASGFTFSGYWMSWVRQAPGKGLEWVSAISGSGGSTYYADSVKGRFTISRDNSKNTLYLQMNSLRAEDTAVYYCAKDFYWDAFDYWGQGTLVTVSS VL: EIVLTQSPATLSLSPGERATLSCRASQSVSSYLAWYQQKPGQAPRLLIYDASNRATGIPARFSGSGSGTDFTLTISSLEPEDFAVYYCQQRSNWPLTFGQGTKVEIKR	binds
TRGB162 (antibody, human IgG1, kappa, V domains shown, human IgG1/kappa) VH: QVQLVQSGAEVKKPGSSVKVSCKASGGTFSSYAISWVRQAPGQGLEWMGGIIPIFGNANYAQKFQGRVTITADESTSTAYMELSSLRSEDTAVYYCARHVYKRGVLNYWGQGTLVTVSS VL: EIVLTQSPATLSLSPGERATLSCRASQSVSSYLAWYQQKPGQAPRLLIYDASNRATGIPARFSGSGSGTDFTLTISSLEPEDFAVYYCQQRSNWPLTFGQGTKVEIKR	binds
TRGB34 (antibody, human IgG1, kappa, V domains shown, human IgG1/kappa) VH: EVQLVQSGAEVKKPGESLKISCKGSGYSFTSYWIGWVRQMPGKGLEWMGIIYPGDSDTRYSPSFQGQVTISADKSISTAYLQWSSLKASDTAMYYCARDYGWHDFDYWGQGTLVTVSS VL: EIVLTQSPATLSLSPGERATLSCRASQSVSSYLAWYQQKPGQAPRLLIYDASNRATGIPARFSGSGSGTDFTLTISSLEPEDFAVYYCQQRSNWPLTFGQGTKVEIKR	binds
